Target: thromboxane synthase (Homo sapiens)
Construct: incubated with fresh whole human blood, that had been anticoagulated with 0.38% trisodium citrate
Sequence (P24557 whole entry): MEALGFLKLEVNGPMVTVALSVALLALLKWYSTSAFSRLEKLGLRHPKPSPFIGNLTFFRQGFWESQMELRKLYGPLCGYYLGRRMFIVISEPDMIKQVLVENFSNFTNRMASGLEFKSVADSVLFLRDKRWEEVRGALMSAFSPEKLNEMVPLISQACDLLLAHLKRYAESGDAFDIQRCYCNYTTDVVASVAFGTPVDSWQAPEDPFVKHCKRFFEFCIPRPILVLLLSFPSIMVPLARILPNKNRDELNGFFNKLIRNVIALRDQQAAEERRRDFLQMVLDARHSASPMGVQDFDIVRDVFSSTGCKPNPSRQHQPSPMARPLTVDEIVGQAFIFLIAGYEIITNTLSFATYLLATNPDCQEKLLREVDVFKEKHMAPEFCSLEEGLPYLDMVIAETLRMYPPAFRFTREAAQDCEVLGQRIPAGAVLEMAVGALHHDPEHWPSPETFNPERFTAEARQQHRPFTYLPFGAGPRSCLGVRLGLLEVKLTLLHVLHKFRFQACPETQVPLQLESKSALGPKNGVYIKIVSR
Test: Thromboxane Synthase Inhibition (TSI) Test, serum TXB2 by radioimmunoassay in human whole blood
Conditions: fresh whole human blood, 30 min at 37° C., then CaCl2 1 hour; TXB2 RIA; read-out: IC50 (concentration of compound required to reduce thromboxane generation to 50% of that obtained with vehicle alone)
pIC50: −log10 of the molar value.
Label TRUE for high-side pIC50 (at or above 7) and FALSE for low-side pIC50 (below it).

Sample answers from the record:
Compound: Cc1ccc2c(c1)c1ccncc1n2CCCCCC(=O)O [Example 6]
Study Target: thromboxane synthase (Homo sapiens)
Class Name: TRUE

Compound: O=C(O)CCCCCCn1c2ccccc2c2ccncc21 [Example 4]
Study Target: thromboxane synthase (Homo sapiens)
Class Name: FALSE

Compound: COc1ccc2c(c1)c1ccncc1n2CCCCCC(=O)O [Example 7]
Study Target: thromboxane synthase (Homo sapiens)
Class Name: TRUE

Compound: O=C(O)CCCCCn1c2ccccc2c2ccncc21 [Example 1, 9H-Pyrido(3,4-β)indole-9-hexanoic acid]
Study Target: thromboxane synthase (Homo sapiens)
Class Name: TRUE

Continue with the compound presented below.
Query string: Does the reported pIC50 for O=C(O)CCCn1c2ccccc2c2ccncc21 [Example 2, 9H-Pyrido (3,4-β)indole-9-butanoic acid] fall at or above the 7 mark?
Result string: FALSE

====

Attribute: IC50
Molecular target: thromboxane synthase (Homo sapiens)
Construct: incubated with fresh whole human blood, that had been anticoagulated with 0.38% trisodium citrate
Assay: Thromboxane Synthase Inhibition (TSI) Test, serum TXB2 by radioimmunoassay in human whole blood
Settings: fresh whole human blood, 30 min at 37° C., then CaCl2 1 hour; TXB2 RIA; read-out: IC50 (concentration of compound required to reduce thromboxane generation to 50% of that obtained with vehicle alone)
Numeric answer only, unit nM assumed.

The following compounds have reported results that may help.
Chem Smiles: O=C(O)CCCCCn1c2ccc([N+](=O)[O-])cc2c2ccncc21
Study Target: thromboxane synthase (Homo sapiens)
IC50 / nM: 91
--
Chem Smiles: O=C(O)CCCCCn1c2ccc(Br)cc2c2ccncc21
Study Target: thromboxane synthase (Homo sapiens)
IC50 / nM: 68

Pending compound:
Query string: Please report the measured IC50 for `O=C(O)CCCCn1c2ccccc2c2ccncc21`
Result string: 100
